assay: anti-His antibody binders, primary screen, artefact control for SMM control protein annotation, biochemical, small-molecule microarray, 635 nm fluorescence (AID 1128); details: anti-His Alexa647 antibody binding, higher = more signal;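 further: score merges feature fluorescence with signal-to-noise for each printed compound spot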
This listing pairs molecules with measured composite z-score.
Endpoint Name: composite z-score

* CC(C)=C1C(=O)C(c2ccccc2)=C2CN3C(=O)N(CCc4ccccc4)C(=O)[C@]3(Cc3ccc(F)cc3)[C@H]21 | 1.59
* CCOC(=O)C[C@H]1[C@H](OC(=O)c2ccc(C(=O)c3ccccc3)cc2)[C@@H](NC(=O)c2ccc(-c3ccccc3)cc2)c2cc(OCCCO)ccc2N1C(=O)c1ccc2ccccc2n1 | 0.128
* CC(=O)OC[C@H]1O[C@H](CCON=C(C)CCC(=O)OC[C@H]2O[C@H](C#Cc3ccccc3)C=C[C@@H]2Oc2ccc(C)cc2)C=C[C@@H]1OC(C)=O | 0.0004
* C#CCCCON=C1C[C@@H](O)[C@@H](O)[C@@H]2[C@@H]3C(=O)N(c4cccc(Oc5ccccc5)c4)C(=O)[C@@H]3CC[C@@H]12 | -0.0428
* COC(=O)C1=CCC(c2cccc(Cl)c2)O1 (configuration not stated) | 0.192
* CCCC=C(CCC)[C@@H](NC(=O)c1ccc(-c2ccccc2)cc1)c1ccc(C(=O)OC)cc1 | 0.377
* COC(=O)[C@H](C)NC(=O)CCC1CC(OC(=O)NCCc2ccc(F)cc2)CC2(CCCC(COC(=O)NCCc3ccc(Cl)cc3)O2)O1 (some centres not stated) | 0.225

====

system: Neuregulin-1 EGF-like domain; experiment: binders of neuregulin-1 EGF-like domain, primary screen, biochemical, small-molecule microarray, 635 nm fluorescence (AID 1081); details: small-molecule microarray binding, higher = more signal;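 further: binding of the protein to compounds printed on small-molecule microarray slides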
In this section we review reported composite z-score values for a set of molecules.
Endpoint Name: composite z-score

* O=C1[C@H]2[C@H]3[C@H](O)[C@H](O)CC(=NO[C@@H]4O[C@H](CO)[C@@H](O)[C@H](O)[C@H]4O)[C@@H]3CC[C@H]2C(=O)N1c1ccc(F)cc1F | 0.386
* CN(C)c1ccc(C(O)C2C=CC3C(=O)N(c4ccccc4)C(=O)C3N2Nc2ccccc2F)cc1 (configuration not stated) | 1.25
* CO[C@H]1COC(=O)CC=C[C@H](C)[C@@H](NS(=O)(=O)c2ccc(C)cc2)COC(=O)CC=C[C@@H]1C | -0.377
* CC(C)[C@@H](OCc1ccccc1)[C@H](C)C=NOC[C@@H](C)[C@H](OCc1ccccc1)C(C)C | -0.44
* [N-]=[N+]=NCc1ccccc1[C@@H]1OC(c2ccc(OCCCO)cc2)=N[C@]1(Cc1ccccc1)C(=O)N1CCOCC1 | 1.25
* O=C1[C@H]2[C@H]3[C@H](O)[C@H](O)CC(=NOC[C@@H](O)COCc4ccco4)[C@@H]3CC[C@H]2C(=O)N1c1ccc(F)cc1F | -0.574
* COc1ccc(O[C@H]2C=C[C@@H](c3ccccc3)O[C@@H]2COC(=O)CCC(C)=NOCC[C@@H]2C=C[C@H](OC(C)=O)[C@@H](COC(C)=O)O2)cc1 | -0.183

====

molecular target: Luciferin 4-monooxygenase (Photinus pyralis) (UniProt P08659); test: firefly luciferase enzyme inhibitors, primary screen, biochemical, luminescence, purified enzyme, 2006 set (AID 1141); conditions: SteadyGlo luminescence, 30 min, called active from +8 up or from −8 down;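 further: cell-free assay with purified firefly luciferase at 100 ng per well in PBS; test concentration not given here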
Sequence (P08659 whole entry, looked up): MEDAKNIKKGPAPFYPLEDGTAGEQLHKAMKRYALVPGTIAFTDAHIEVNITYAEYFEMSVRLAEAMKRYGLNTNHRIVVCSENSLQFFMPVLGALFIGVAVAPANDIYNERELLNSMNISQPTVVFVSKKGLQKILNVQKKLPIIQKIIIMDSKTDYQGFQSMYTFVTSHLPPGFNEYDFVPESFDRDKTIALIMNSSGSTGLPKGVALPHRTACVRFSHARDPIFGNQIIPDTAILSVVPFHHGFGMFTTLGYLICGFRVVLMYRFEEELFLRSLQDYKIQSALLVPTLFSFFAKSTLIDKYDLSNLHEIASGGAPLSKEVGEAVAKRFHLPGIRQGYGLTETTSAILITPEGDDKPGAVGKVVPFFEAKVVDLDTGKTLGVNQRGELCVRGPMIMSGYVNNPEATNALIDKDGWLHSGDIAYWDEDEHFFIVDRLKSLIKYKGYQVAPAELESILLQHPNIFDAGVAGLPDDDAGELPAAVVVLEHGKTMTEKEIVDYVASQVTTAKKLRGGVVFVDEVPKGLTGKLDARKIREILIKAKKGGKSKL
Calls of active or inactive are those of the source.
Possible outcomes: label 1 for active, label 0 for inactive

• CCOC(=O)CCN1C(=O)[C@H]2[C@H]3[C@H](O)[C@H](O)CC(=NOC[C@@H](O)COCc4ccco4)[C@H]3CC[C@H]2C1=O = label 0
• C=CCC(OC(C)=O)[C@@H]1[C@@H](N(Cc2cc3ccccc3o2)C(=O)Cc2ccc(F)cc2)c2cc(OCCCO)ccc2N1C(=O)Cc1ccc(OC)cc1 (some centres undefined) = label 0
• COC(=O)[C@H]1COC(c2ccc(OCCCO)cc2)=N1 = label 1
• COC(=O)CC=C[C@@H](C)[C@H](OC)c1ccccc1Br = label 0
